target: SOS1/KRAS WT (Homo sapiens (Human)); experiment: SOS1/KRAS WT HTRF binding assay (FRET-based protein-protein interaction); conditions: inhibition of His6-SOS1 (aa564-1049, 40 nM) binding to GST-KRAS-WT (aa1-188, 40 nM); at least two independent replicates; read-out: SOS1/KRAS WT HTRF Binding assay pIC50 (converted)
Sequence (Q07889 564-1049): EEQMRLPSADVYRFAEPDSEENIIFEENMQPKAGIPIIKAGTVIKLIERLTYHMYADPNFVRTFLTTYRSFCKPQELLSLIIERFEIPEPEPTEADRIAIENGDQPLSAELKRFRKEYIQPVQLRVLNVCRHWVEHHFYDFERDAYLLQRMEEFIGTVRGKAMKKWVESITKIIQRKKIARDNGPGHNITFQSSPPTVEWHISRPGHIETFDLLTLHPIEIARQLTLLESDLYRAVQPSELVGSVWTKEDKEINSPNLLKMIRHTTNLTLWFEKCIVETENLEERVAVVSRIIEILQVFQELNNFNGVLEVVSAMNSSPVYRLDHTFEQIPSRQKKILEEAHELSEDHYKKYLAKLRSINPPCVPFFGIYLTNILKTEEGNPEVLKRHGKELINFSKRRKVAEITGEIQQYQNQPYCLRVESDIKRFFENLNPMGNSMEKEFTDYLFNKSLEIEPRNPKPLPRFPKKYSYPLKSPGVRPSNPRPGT
parameter: IC50 (µM)

Some solved cases for reference:
Cc1c([C@@H](C)Nc2nnc(C)c3cc4c(cc23)n(C2(C)CC2)c(=O)n4C)cccc1C(F)(F)CO [Compound 76] :: 0.00603
CCC1(OC)C(=O)N(C)c2cc3c(C)nnc(N[C@H](C)c4cccc(C(F)(F)CO)c4F)c3cc21 (stereo partly shown) [Compound 197] :: 0.0145

1 = Cc1nnc(N[C@H](C)c2ccc3cn[nH]c3c2)c2cc3c(cc12)n(C)c(=O)n3C [Compound 57]
2 = Cc1nnc(N[C@H](C)c2cccc(C(F)(F)F)c2)c2cc3c(cc12)n(C)c(=O)n3CC(F)(F)F [Compound 11]
3 = COC1(C)C(=O)N(C)c2cc3c(N[C@H](C)c4cc(F)cc(C(F)(F)CO)c4F)nnc(C)c3cc21 (stereo partly shown) [Compound 141]
4 = CCOC1(C)C(=O)N(C)c2cc3c(N[C@H](C)c4cccc(C(F)(F)CO)c4C)nnc(C)c3cc21 (stereo partly shown) [Compound 134]
Problem: Rank order required: IC50, descending. Arrange the labels as the request states and list them.
Result: 1, 3, 2, 4
